target.or.system: human GABAA α1β3γ2 receptor (Homo sapiens (Human), UniProt P14867+P18507)
method: Radioligand binding assay, competition for [3H]Flumazenil, γ2-containing GABAA subtype α1β3γ2
measurement.kind: Ki (nM)
API: value field is a number in nM; no unit string.

Solved cases below.
compound	target.or.system	unit.abbrev	Ki
C[C@@H]1N=C(c2c(F)cccc2F)c2c(ccc(Cl)c2Br)-n2ccc(=O)nc21 [Example 6]	human GABAA α1β3γ2 receptor (Homo sapiens (Human), UniProt P14867+P18507)	nM	1780
O=c1ccn2c(n1)CN=C(c1ccccc1F)c1cc(Cl)ccc1-2 [RE-A, reference compound]	human GABAA α1β3γ2 receptor (Homo sapiens (Human), UniProt P14867+P18507)	nM	27.8
CCc1cn2c(nc1=O)[C@H](C)N=C(c1c(F)cccc1F)c1c-2ccc(C(F)(F)F)c1Cl [Example 11]	human GABAA α1β3γ2 receptor (Homo sapiens (Human), UniProt P14867+P18507)	nM	6090
C[C@@H]1N=C(c2c(F)cccc2F)c2c(ccc(C(F)(F)F)c2Cl)-n2ccc(=O)nc21 [Example 10]	human GABAA α1β3γ2 receptor (Homo sapiens (Human), UniProt P14867+P18507)	nM	6120
O=c1ccn2c(n1)CN=C(c1ncccc1F)c1c-2ccc(Cl)c1Cl [Example 3]	human GABAA α1β3γ2 receptor (Homo sapiens (Human), UniProt P14867+P18507)	nM	2190

### Prompt GET /values?readout=Ki&system=human GABAA α1β3γ2 receptor (Homo sapiens (Human), UniProt P14867+P18507)&item= O=c1ccn2c(n1)CN=C(c1c(F)cccc1F)c1c-2ccc(Cl)c1Br [Example 17]
### Response 507

### Prompt GET /values?readout=Ki&system=human GABAA α1β3γ2 receptor (Homo sapiens (Human), UniProt P14867+P18507)&item= C[C@@H]1N=C(c2c(F)cccc2F)c2c(ccc(Cl)c2Cl)-n2ccc(=O)nc21 [Example 4]
### Response 912

### Prompt GET /values?readout=Ki&system=human GABAA α1β3γ2 receptor (Homo sapiens (Human), UniProt P14867+P18507)&item= Cc1cn2c(nc1=O)[C@H](C)N=C(c1c(F)cccc1F)c1c-2ccc(C(F)(F)F)c1Cl [Example 9]
### Response 5950

* * *

target.or.system: human GABAA α2β2γ1 receptor (Homo sapiens (Human), UniProt P47869+Q8N1C3)
method: Radioligand binding assay, competition for [3H]RO7239181, γ1-containing GABAA subtype α2β2γ1
recorded.conditions: read-out: Ki h-GABAA α2β2γ1; Table 2; membranes of HEK293F cells, [3H]RO7239181
measurement.kind: Ki (nM)
API: value field is a number in nM; no unit string.

Solved cases below.
sample.smiles	unit.abbrev	numeric.readout
C[C@@H]1N=C(c2c(F)cccc2F)c2c(ccc(Br)c2Cl)-n2ccc(=O)nc21	nM	11.4
O=c1ccn2c(n1)CN=C(c1ncccc1F)c1c-2ccc(Cl)c1Cl	nM	112
C[C@@H]1N=C(c2c(F)cccc2F)c2c(ccc(C(F)(F)F)c2Cl)-n2ccc(=O)nc21	nM	54.6
Cc1ccc2c(c1Cl)C(c1c(F)cccc1F)=N[C@@H](C)c1nc(=O)c(C)cn1-2	nM	37.7

### Prompt GET /values?readout=Ki&system=human GABAA α2β2γ1 receptor (Homo sapiens (Human), UniProt P47869+Q8N1C3)&item= C[C@@H]1N=C(c2c(F)cccc2F)c2c(ccc(Cl)c2Br)-n2cc(Br)c(=O)nc21
### Response 74.1

### Prompt GET /values?readout=Ki&system=human GABAA α2β2γ1 receptor (Homo sapiens (Human), UniProt P47869+Q8N1C3)&item= O=c1nc2n(cc1Br)-c1ccc(Br)c(Cl)c1C(c1c(F)cccc1F)=NC2
### Response 8

### Prompt GET /values?readout=Ki&system=human GABAA α2β2γ1 receptor (Homo sapiens (Human), UniProt P47869+Q8N1C3)&item= O=c1ccn2c(n1)CN=C(c1ccccc1F)c1c-2ccc(Cl)c1Cl
### Response 57.9

### Prompt GET /values?readout=Ki&system=human GABAA α2β2γ1 receptor (Homo sapiens (Human), UniProt P47869+Q8N1C3)&item= Cc1cn2c(nc1=O)[C@H](C)N=C(c1c(F)cccc1F)c1c-2ccc(Cl)c1Cl
### Response 11.3

Numbers sourced from patent US20240287082A1.
